- measurement target: T1, IL10Rα/IL2Rγ receptor (human, UniProt Q13651 22-578; P31785 23-369)
- T1 sequence (looked up) 1: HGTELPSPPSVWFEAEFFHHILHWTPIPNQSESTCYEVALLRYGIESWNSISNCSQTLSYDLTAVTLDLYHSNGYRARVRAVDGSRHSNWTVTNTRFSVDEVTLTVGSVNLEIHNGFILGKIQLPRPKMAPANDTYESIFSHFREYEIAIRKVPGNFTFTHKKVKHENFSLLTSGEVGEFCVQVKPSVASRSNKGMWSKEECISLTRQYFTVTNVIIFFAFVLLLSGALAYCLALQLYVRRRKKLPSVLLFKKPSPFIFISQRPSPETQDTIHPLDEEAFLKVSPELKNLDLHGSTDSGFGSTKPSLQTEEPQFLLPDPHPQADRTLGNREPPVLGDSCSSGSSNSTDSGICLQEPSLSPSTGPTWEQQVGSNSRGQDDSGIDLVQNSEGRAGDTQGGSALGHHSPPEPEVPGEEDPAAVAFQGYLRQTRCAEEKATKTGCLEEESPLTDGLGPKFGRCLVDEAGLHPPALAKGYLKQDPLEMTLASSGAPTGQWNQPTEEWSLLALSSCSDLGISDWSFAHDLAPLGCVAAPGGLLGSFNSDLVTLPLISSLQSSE
- T1 sequence (looked up) 2: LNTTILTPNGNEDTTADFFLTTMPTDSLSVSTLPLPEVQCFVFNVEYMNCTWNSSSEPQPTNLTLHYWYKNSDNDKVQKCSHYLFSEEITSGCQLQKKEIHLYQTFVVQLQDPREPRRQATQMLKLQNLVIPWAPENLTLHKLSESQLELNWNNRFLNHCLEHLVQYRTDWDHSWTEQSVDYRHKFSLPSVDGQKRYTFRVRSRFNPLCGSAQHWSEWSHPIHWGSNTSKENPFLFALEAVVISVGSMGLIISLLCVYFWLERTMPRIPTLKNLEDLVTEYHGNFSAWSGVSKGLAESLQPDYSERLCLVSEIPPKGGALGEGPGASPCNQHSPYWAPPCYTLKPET
- experiment description: cell-based or functional assay
pSTAT3 MFI, CD8 T cells, 0.1 nM (unstimulated 1446) reference
State just the number; it will be interpreted in MFI.

[
  {
    "binder": "DR395(DR229-DR239) (bispecific antibody) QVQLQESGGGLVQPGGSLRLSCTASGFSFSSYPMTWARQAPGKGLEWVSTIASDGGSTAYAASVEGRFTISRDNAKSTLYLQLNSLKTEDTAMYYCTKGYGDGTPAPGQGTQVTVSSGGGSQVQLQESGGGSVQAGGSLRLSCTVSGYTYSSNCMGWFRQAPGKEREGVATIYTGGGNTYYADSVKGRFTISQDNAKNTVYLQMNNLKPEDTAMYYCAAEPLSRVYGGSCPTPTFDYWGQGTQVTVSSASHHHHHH",
    "measured value": 1800
  },
  {
    "binder": "DR441(DR236-DR231) (bispecific antibody) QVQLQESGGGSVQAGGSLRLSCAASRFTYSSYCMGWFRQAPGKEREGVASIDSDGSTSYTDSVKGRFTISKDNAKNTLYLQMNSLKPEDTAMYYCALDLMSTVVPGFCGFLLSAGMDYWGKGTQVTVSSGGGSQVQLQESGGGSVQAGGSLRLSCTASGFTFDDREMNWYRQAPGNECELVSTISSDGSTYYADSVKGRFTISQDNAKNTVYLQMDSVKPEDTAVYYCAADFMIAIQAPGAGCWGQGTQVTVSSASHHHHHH",
    "measured value": 1610
  },
  {
    "binder": "DR465(DR240-DR231) (bispecific antibody) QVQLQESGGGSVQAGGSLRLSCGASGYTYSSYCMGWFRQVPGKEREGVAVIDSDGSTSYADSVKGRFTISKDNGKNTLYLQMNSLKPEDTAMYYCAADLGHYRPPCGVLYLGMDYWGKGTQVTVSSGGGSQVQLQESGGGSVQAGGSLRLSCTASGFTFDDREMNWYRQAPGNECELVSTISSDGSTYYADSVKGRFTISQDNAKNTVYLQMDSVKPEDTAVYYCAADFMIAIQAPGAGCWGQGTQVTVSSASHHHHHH",
    "measured value": 1590
  }
]

From here, focus on the item given below.
Qu. Bench note: what pSTAT3 MFI, CD8 T cells, 0.1 nM (unstimulated 1446) did DR471(DR241-DR231) (bispecific antibody) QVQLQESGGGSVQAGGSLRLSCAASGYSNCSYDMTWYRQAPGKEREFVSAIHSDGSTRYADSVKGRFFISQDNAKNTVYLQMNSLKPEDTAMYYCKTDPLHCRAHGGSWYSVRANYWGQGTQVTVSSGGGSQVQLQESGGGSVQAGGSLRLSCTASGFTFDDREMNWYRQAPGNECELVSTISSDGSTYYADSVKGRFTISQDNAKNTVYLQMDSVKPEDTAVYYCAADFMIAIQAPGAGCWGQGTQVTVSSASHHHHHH show?
Ans. 1640
